- measurement.description: Dog pharmacokinetic study
- Format: in vivo, beagle dog
- details: plasma; beagle dog, male, 1 mg/kg, iv; read-out: VSS
assay.readout: Vd (L/kg)

>  <compound>
C=CC(=O)N1CCN(c2nc(=O)n(-c3c(C)ccnc3C(C)C)c3nc(-c4c(O)cccc4F)c(F)cc23)[C@@H](C)C1 [Amg-510, reference compound]

>  <reading>
0.535

$$$$

* * *

- measurement.description: Cynomolgus monkey pharmacokinetic study
- Assay type: in vivo
- details: plasma; cynomolgus monkey, female, 1 mg/kg, iv

>  <molecule>
C=CC(=O)N1CCN(c2nc(=O)n(-c3c(C)ccnc3C(C)C)c3nc(-c4c(O)cccc4F)c(F)cc23)[C@@H](C)C1 [Amg-510, reference compound]

>  <clearance [mL/min/kg]>
84.3

$$$$
